These measurements were taken from ChEMBL document CHEMBL1133698.

Molecular target: Delta-type opioid receptor (Rattus norvegicus, UniProt P33533)
Sequence (P33533 whole entry, looked up): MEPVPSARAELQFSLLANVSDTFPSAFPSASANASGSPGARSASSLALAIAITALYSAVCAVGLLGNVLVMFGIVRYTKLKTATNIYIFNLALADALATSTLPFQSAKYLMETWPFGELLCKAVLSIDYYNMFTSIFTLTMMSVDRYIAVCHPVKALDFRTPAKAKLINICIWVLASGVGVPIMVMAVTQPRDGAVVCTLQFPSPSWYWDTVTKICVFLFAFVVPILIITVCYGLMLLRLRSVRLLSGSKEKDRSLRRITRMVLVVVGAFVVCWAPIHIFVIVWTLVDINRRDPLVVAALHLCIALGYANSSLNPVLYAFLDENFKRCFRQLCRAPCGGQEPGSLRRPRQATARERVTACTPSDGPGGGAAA
Assay: Binding affinity was determined by displacement of [3H]- DSLET at Opioid receptor delta 1 in rat brain membrane homogenates
Where a SMILES comes first, the peptide text is derived from it. Bridges are numbered along the chain shown (N, C = ends). [ ]: non-standard residue; d: D form. 2Nal = N[C@@H](Cc1ccc2ccccc2c1)C(=O)O; Dmt = Cc1cc(O)cc(C)c1C[C@H](N)C(=O)O; dOrn = NCCC[C@@H](N)C(=O)O
Reported Property: pKi
Kindly note that pKi refers to -log10 of the concentration in mol/L and answer with the value alone.

// worked examples, pKi included
stdin: Recorded pKi for Cc1cc(O)cc(C)c1C[C@H](NC=O)C(=O)N[C@@H]1CCCNC(=O)CNC(=O)[C@H]2CCCN2C(=O)[C@H](Cc2ccc3ccccc3c2)NC1=O , please?
stdout: 7.48

stdin: Recorded pKi for C[C@@H](O)[C@@H]1NC(=O)[C@H](Cc2ccc(O)cc2)NC(=O)[C@@H](Cc2c[nH]c3ccccc23)NC(=O)[C@H](Cc2cccc3ccccc23)NC(=O)[C@@H]2CCCN2C(=O)[C@H](Cc2ccccc2)NC1=O , please?
stdout: 6.82

stdin: Recorded pKi for C[C@@H](O)[C@@H]1NC(=O)[C@H](CC2CCCCC2)NC(=O)[C@@H](Cc2c[nH]c3ccccc23)NC(=O)[C@H](Cc2ccccc2)NC(=O)[C@@H]2CCCN2C(=O)[C@H](Cc2ccccc2)NC1=O , please?
stdout: 6.31

stdin: Recorded pKi for C[C@@H](O)[C@@H]1NC(=O)[C@H](Cc2ccc(O)cc2)NC(=O)[C@@H](Cc2c[nH]c3ccccc23)NC(=O)[C@H](Cc2ccc3ccccc3c2)NC(=O)[C@@H]2CCCN2C(=O)[C@H](Cc2ccccc2)NC1=O , please?
stdout: 5.97

stdin: Recorded pKi for Cc1cc(O)cc(C)c1C[C@H](N)C(=O)N[C@@H]1CCCNC(=O)CNC(=O)[C@H]2CCCN2C(=O)[C@H](Cc2ccc3ccccc3c2)NC1=O (H-[Dmt][dOrn][2Nal][dP]G; lactam 2-C) , please?
stdout: 9.33

Next:
stdin: Recorded pKi for Cc1cc(O)cc(C)c1CCC(=O)N[C@@H]1CCCNC(=O)CNC(=O)[C@H]2CCCN2C(=O)[C@H](Cc2ccc3ccccc3c2)NC1=O , please?
stdout: 6.96

stdin: Recorded pKi for C[C@@H](O)[C@@H]1NC(=O)[C@H](Cc2ccc(O)cc2)NC(=O)[C@@H](Cc2c[nH]c3ccccc23)NC(=O)[C@H](Cc2ccccc2)NC(=O)[C@@H]2CCCN2C(=O)[C@H](Cc2ccccc2)NC1=O (cyclo(FPF[dW]YT)) , please?
stdout: 6.12

* * *

Organism: Mus musculus
Assay: Antagonist activity was determined against the selective delta -agonist DPDPE in the MVD (mouse vas deferens) assay
Format: functional
Where a SMILES comes first, the peptide text is derived from it. Bridges are numbered along the chain shown (N, C = ends). [ ]: non-standard residue; d: D form. 2Nal = N[C@@H](Cc1ccc2ccccc2c1)C(=O)O; Dmt = Cc1cc(O)cc(C)c1C[C@H](N)C(=O)O; dOrn = NCCC[C@@H](N)C(=O)O
Lab note: anything with Ke at or over 100 nM counts as 1 (yes); the rest go in 0 (no).

Reference set (5 entries):
stdin: Check the entry Cc1cc(O)cc(C)c1C[C@H](N)C(=O)N[C@@H]1CCCNC(=O)CNC(=O)[C@H]2CCCN2C(=O)[C@H](Cc2ccc3ccccc3c2)NC1=O (H-[Dmt][dOrn][2Nal][dP]G; lactam 2-C) : does Ke equal or exceed 100 nM?
stdout: 0 (no)

stdin: Check the entry C[C@@H](O)[C@@H]1NC(=O)[C@H](Cc2ccc(O)cc2)NC(=O)[C@@H](Cc2c[nH]c3ccccc23)NC(=O)[C@H](Cc2ccc3ccccc3c2)NC(=O)[C@@H]2CCCN2C(=O)[C@H](Cc2ccccc2)NC1=O : does Ke equal or exceed 100 nM?
stdout: 1 (yes)

stdin: Check the entry Cc1cc(O)cc(C)c1CCC(=O)N[C@@H]1CCCNC(=O)CNC(=O)[C@H]2CCCN2C(=O)[C@H](Cc2ccc3ccccc3c2)NC1=O : does Ke equal or exceed 100 nM?
stdout: 1 (yes)

stdin: Check the entry C[C@@H](O)[C@@H]1NC(=O)[C@H](Cc2ccc(O)cc2)NC(=O)[C@@H](Cc2c[nH]c3ccccc23)NC(=O)[C@H](Cc2cccc3ccccc23)NC(=O)[C@@H]2CCCN2C(=O)[C@H](Cc2ccccc2)NC1=O : does Ke equal or exceed 100 nM?
stdout: 1 (yes)

stdin: Check the entry Cc1cc(O)cc(C)c1C[C@H](NC=O)C(=O)N[C@@H]1CCCNC(=O)CNC(=O)[C@H]2CCCN2C(=O)[C@H](Cc2ccc3ccccc3c2)NC1=O : does Ke equal or exceed 100 nM?
stdout: 0 (no)

Next:
stdin: Check the entry C[C@@H](O)[C@@H]1NC(=O)[C@H](CC2CCCCC2)NC(=O)[C@@H](Cc2c[nH]c3ccccc23)NC(=O)[C@H](Cc2ccccc2)NC(=O)[C@@H]2CCCN2C(=O)[C@H](Cc2ccccc2)NC1=O : does Ke equal or exceed 100 nM?
stdout: 1 (yes)
